Source of measurements: ChEMBL document CHEMBL1125608

tested on: Angiotensin II receptor (Oryctolagus cuniculus); assay: Displacement of [3H]Angiotensin II (300 ng/mL) from rabbit adrenal cortex
Peptide text beside a SMILES is read from it. * marks the point of attachment. Propanoyl(3-(4-MeO-Ph)) = COc1ccc(CCC(=O)*)cc1; Desaminotyrosyl = O=C(CCc1ccc(O)cc1)*; Cbz = O=C(OCc1ccccc1)*
endpoint-name: Displacement (%)
Give bare numbers, in %.

Take a look at these entries with their results.
CC[C@H](C)[C@H](NC(=O)[C@@H]1CCCN1C(=O)[C@H](Cc1c[nH]cn1)NC(=O)[C@@H](NC(=O)CCc1ccc(OC)cc1)C(C)C)C(=O)O ({Propanoyl(3-(4-MeO-Ph))}-VHPI-OH) = 0
CC[C@H](C)[C@H](NC(=O)[C@@H]1CCCN1C(=O)[C@H](Cc1c[nH]cn1)NC(=O)[C@@H](NC(=O)CCc1ccc(O)cc1)C(C)C)C(=O)O (Desaminotyrosyl-VHPI-OH) = 0
CC[C@H](C)[C@H](NC(=O)[C@@H]1CCCN1C(=O)[C@H](Cc1c[nH]cn1)NC(=O)[C@@H](NC(=O)[C@H](Cc1ccc(O)cc1)NC(=O)[C@@H](NC(=O)[C@H](CCCN=C(N)N)NC(=O)CNC)C(C)C)C(C)C)C(=O)O = 100

Query string: Consider the compound shown here: CC[C@H](C)[C@H](NC(=O)[C@@H]1CCCN1C(=O)[C@H](Cc1c[nH]cn1)NC(=O)[C@@H](NC(=O)OCc1ccccc1)C(C)C)C(=O)O (Cbz-VHPI-OH) What is its recorded Displacement?
Result string: 10
